meta.source: PubChem BioAssay (NCI)

- System: SF-268 CNS
- protocol_summary: NCI-60 one-dose screen, 48 h
- measurement_parameters: 10 µM unless noted
About 83,000 compounds went through this panel and 20% of them were active in at least one assay; those are over-represented in the sample as a whole. Calls of active or inactive are those of the source. The calls were made as follows: active = growth percent below 10; inactive = the rest.
Your answer must be one of the following: 1.0 = active, 0.0 = inactive

The examples below pair each entry with its known result.
molecule	group_label
C/C(=N\Nc1ccc([N+](=O)[O-])cn1)c1ccc(N)cc1	0.0
COc1ccc(CC2c3cc(OC)c(OC)cc3CC[N+]2(C)CCC(=O)OCCCCCOC(=O)CC[N+]2(C)CCc3cc(OC)c(OC)cc3C2Cc2ccc(OC)c(OC)c2)cc1OC (stereo not given)	0.0
O=C(Nc1cccc(Cl)c1)Nc1ccccc1Cl	0.0
CCN(CC)Cc1cc(Nc2ccnc3ccc(OC)cc23)ccc1O	0.0
O=C1NN(C(=O)c2ccccc2)C(c2ccc(Cl)c(Cl)c2)=C/C1=C\c1ccccc1[N+](=O)[O-]	0.0

Request: Check the results log: what was the call for Clc1nnc2c3ccccc3ccn12 ?
Result: 0.0

Request: Check the results log: what was the call for COc1ccccc1CNCCCN1C(=O)c2ccc3c4c(ccc(c24)C1=O)C(=O)N(CCCCNCCCN)C3=O ?
Result: 1.0

Request: Check the results log: what was the call for Nc1c(C(=O)C[C@@H](N)CO)ccc2c1C(=O)CCO2 ?
Result: 0.0

Request: Check the results log: what was the call for ClCc1c(Cl)c(Cl)c(Cl)c(CCl)c1Cl ?
Result: 0.0

Request: Check the results log: what was the call for CCC(=O)NC1=C(Cl)C(=O)C(NC(=O)CC)=C(Cl)C1=O ?
Result: 0.0

###

- System: HCC-2998 colon
- protocol_summary: NCI-60 one-dose screen, 48 h
- measurement_parameters: 10 µM unless noted
This is part of a sample that, as a whole, favours compounds with a hit. Of some 83,000 tested, about 20% had one in any assay. Calls of active or inactive are those of the source. Rule for the calls: active = growth percent below 10; inactive = the rest.
Your answer must be one of the following: active, inactive

The examples below pair each entry with its known result.
molecule	group_label
CCN(CC)c1ccc(/C=N/NC(=O)C[N+](C)(C)C)cc1	inactive
COC(=O)[C@H](Cc1cn(C)cn1)NC(=O)[C@H](CC(C)C)NC(=O)Nc1cc(C(F)(F)F)cc(C(F)(F)F)c1	active

Request: Check the results log: what was the call for CCOC(=O)C#Cc1c(C(=O)OCC)nnn1[C@@H]1O[C@H](COC(C)=O)[C@@H](OC(C)=O)[C@H]1OC(C)=O ?
Result: inactive

Request: Check the results log: what was the call for NS(=O)(=O)c1ccc(CCn2c(SCC(=O)N/N=C/c3cc4ccccc4[nH]3)nc3ccccc3c2=O)cc1 ?
Result: inactive

Request: Check the results log: what was the call for COc1ccc(/C(C)=N/NC(=O)c2ccc(S(C)(=O)=O)cc2)cc1OC ?
Result: inactive

Request: Check the results log: what was the call for COc1cc(CN(CCC(O)N2CCCC2=O)Cc2ccc3c(c2)OCO3)cc(OC)c1OC (centres undefined) ?
Result: inactive

Request: Check the results log: what was the call for CCCCc1nc(Cl)c(C2CC(c3ccc(S(N)(=O)=O)cc3)=NN2c2cc(Cl)cc(Cl)c2)[nH]1 (centres undefined) ?
Result: inactive

Request: Check the results log: what was the call for Cc1ccc(NC(=O)c2cc(NCc3cc(O)ccc3O)ccc2O)cc1 ?
Result: inactive

Request: Check the results log: what was the call for Clc1cccc(CNc2c3ccccc3nc3ccccc23)c1 ?
Result: active
